# Activity listing for each entry below
Molecular target: Protein cereblon/Histone acetyltransferase p300 (Homo sapiens, UniProt Q09472+Q96SW2)
Sequence (Q09472 2-2414 limits assumed): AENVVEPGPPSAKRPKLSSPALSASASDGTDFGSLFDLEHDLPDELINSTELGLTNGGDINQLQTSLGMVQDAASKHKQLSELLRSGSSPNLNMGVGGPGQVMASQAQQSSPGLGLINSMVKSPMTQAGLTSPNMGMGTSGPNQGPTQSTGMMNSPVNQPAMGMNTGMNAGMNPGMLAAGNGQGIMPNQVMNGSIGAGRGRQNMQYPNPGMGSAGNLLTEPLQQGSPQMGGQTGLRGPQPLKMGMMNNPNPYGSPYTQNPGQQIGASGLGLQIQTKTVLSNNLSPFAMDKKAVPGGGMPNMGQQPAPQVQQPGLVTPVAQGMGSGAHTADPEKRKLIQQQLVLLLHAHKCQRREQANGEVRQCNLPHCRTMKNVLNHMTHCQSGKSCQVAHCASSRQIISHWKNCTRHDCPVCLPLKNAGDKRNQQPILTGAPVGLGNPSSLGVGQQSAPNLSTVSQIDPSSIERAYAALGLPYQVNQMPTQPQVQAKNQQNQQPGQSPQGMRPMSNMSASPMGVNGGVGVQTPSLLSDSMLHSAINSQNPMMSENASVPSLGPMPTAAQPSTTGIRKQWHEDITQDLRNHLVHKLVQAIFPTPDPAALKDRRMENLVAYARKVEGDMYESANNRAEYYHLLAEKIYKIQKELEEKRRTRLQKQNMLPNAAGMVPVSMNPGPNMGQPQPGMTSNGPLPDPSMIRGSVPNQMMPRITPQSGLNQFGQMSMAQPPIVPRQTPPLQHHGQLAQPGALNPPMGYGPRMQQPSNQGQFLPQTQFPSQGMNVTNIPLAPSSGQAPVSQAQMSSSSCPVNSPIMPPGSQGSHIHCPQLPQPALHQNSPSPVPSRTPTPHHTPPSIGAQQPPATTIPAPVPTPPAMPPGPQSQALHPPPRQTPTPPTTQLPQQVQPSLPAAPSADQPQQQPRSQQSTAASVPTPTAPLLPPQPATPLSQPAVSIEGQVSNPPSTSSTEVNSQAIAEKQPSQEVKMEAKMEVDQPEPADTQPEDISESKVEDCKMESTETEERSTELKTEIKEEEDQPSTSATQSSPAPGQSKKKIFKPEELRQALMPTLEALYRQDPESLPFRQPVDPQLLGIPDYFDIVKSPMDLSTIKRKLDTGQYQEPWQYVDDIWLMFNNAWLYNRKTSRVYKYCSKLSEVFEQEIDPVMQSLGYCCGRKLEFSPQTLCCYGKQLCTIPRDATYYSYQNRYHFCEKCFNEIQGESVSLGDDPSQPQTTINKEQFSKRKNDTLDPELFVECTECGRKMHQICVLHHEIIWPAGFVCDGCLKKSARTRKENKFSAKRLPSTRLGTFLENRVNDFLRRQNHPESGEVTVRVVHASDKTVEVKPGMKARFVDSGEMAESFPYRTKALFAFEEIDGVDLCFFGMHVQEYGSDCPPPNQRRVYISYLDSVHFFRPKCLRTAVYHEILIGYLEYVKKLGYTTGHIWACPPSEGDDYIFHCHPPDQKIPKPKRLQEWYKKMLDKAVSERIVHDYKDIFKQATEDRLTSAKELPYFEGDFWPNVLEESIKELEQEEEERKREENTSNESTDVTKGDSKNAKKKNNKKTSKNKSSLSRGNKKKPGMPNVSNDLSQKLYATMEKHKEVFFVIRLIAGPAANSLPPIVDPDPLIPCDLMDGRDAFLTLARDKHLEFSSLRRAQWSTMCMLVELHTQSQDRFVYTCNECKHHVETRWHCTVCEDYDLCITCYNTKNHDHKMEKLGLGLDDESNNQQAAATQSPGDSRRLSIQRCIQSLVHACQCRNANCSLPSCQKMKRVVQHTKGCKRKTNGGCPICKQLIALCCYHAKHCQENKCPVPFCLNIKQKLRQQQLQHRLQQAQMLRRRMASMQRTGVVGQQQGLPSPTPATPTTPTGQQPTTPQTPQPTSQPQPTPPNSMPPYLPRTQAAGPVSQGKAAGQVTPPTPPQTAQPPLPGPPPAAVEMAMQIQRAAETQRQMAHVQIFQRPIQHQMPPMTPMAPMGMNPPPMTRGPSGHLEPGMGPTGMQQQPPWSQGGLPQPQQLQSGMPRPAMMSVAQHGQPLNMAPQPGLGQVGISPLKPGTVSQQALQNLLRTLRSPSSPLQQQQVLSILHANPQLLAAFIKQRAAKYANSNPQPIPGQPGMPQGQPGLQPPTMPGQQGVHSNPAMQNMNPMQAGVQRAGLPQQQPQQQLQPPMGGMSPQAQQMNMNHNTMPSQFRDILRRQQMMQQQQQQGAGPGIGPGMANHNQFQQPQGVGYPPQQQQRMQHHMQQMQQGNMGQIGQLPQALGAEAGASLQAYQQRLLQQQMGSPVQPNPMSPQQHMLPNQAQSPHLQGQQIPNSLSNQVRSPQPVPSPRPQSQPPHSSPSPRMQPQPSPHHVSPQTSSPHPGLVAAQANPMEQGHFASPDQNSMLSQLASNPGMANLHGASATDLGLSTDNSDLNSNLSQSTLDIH
Sequence (Q96SW2 whole entry partner): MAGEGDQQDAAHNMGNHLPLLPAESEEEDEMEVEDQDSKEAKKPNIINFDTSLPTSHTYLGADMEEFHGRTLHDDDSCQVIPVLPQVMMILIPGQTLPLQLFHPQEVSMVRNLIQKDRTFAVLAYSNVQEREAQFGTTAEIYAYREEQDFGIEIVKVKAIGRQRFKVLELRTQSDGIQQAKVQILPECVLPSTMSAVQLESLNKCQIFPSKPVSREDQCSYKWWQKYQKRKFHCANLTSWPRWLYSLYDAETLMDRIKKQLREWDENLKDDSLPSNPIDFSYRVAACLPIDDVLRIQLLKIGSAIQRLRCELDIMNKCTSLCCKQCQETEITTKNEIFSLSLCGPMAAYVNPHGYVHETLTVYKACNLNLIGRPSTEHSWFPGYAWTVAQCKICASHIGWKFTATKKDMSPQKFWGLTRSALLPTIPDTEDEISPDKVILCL
Experiment: PROTAC activity at CRBN/p300 in human SK-HEP1 cells assessed as induction of p300 protein degradation at 0.01 uM incubated for 24 hrs relative to control
Type: cell-based
Endpoint Label: Activity

- Compound: "Cc1noc(C)c1-c1ccc2c(c1)nc([C@@H]1CCCC(=O)N1c1ccc(F)c(F)c1)n2C1CCN(C(=O)CCOCCOCCOCCNc2cccc3c2C(=O)N(C2CCC(=O)NC2=O)C3=O)CC1 (stereo partly specified)"
  Endpoint Label: "Activity"
  Observed Value: "< 1%"
- Compound: "Cc1noc(C)c1-c1ccc2c(c1)nc([C@@H]1CCCC(=O)N1c1ccc(F)c(F)c1)n2C1CCN(C(=O)CNc2cccc3c2C(=O)N(C2CCC(=O)NC2=O)C3=O)CC1 (stereo partly specified)"
  Endpoint Label: "Activity"
  Observed Value: "< 1%"
- Compound: "Cc1noc(C)c1-c1ccc2c(c1)nc([C@@H]1CCCC(=O)N1c1ccc(F)c(F)c1)n2C1CN(C2CCN(c3ccc4c(c3)C(=O)N(C3CCC(=O)NC3=O)C4=O)CC2)C1 (stereo partly specified)"
  Endpoint Label: "Activity"
  Observed Value: "4%"
- Compound: "Cc1noc(C)c1-c1ccc2c(c1)nc([C@@H]1CCCC(=O)N1c1ccc(F)c(F)c1)n2C1CCN(C2CN(c3cccc4c3C(=O)N(C3CCC(=O)NC3=O)C4=O)C2)CC1 (stereo partly specified)"
  Endpoint Label: "Activity"
  Observed Value: "< 1%"
- Compound: "Cc1noc(C)c1-c1ccc2c(c1)nc([C@@H]1CCCC(=O)N1c1ccc(F)c(F)c1)n2C1CCN(C(=O)CNc2ccc3c(c2)C(=O)N(C2CCC(=O)NC2=O)C3=O)CC1 (stereo partly specified)"
  Endpoint Label: "Activity"
  Observed Value: "< 1%"
- Compound: "Cc1noc(C)c1-c1ccc2c(c1)nc([C@@H]1CCCC(=O)N1c1ccc(F)c(F)c1)n2C1CCN(c2cccc3c2C(=O)N(C2CCC(=O)NC2=O)C3=O)CC1 (stereo partly specified)"
  Endpoint Label: "Activity"
  Observed Value: "< 1%"
- Compound: "Cc1noc(C)c1-c1ccc2c(c1)nc([C@@H]1CCCC(=O)N1c1ccc(F)c(F)c1)n2C1CCN(C2CN(c3ccc4c(c3)C(=O)N(C3CCC(=O)NC3=O)C4=O)C2)CC1 (stereo partly specified)"
  Endpoint Label: "Activity"
  Observed Value: "9%"
- Compound: "Cc1noc(C)c1-c1ccc2c(c1)nc([C@@H]1CCCC(=O)N1c1ccc(F)c(F)c1)n2C1CCN(c2ccc3c(c2)C(=O)N(C2CCC(=O)NC2=O)C3=O)CC1 (stereo partly specified)"
  Endpoint Label: "Activity"
  Observed Value: "6%"
- Compound: "Cc1noc(C)c1-c1ccc2c(c1)nc([C@@H]1CCCC(=O)N1c1ccc(F)c(F)c1)n2C1CCN(C(=O)CCOCCOCCOCCOCCNc2cccc3c2C(=O)N(C2CCC(=O)NC2=O)C3=O)CC1 (stereo partly specified)"
  Endpoint Label: "Activity"
  Observed Value: "< 1%"
- Compound: "Cc1noc(C)c1-c1ccc2c(c1)nc([C@@H]1CCCC(=O)N1c1ccc(F)c(F)c1)n2C1CCN(C(=O)CCOCCOCCOCCNc2ccc3c(c2)C(=O)N(C2CCC(=O)NC2=O)C3=O)CC1 (stereo partly specified)"
  Endpoint Label: "Activity"
  Observed Value: "< 1%"
- Compound: "CNC(=O)N1CCc2c(c(N3CCCc4cc(-c5cnn(C)c5)c(C(F)F)cc43)nn2C2CCN(C(=O)CCOCCOCCOCCOCCNc3ccc4c(c3)C(=O)N(C3CCC(=O)NC3=O)C4=O)CC2)C1 (stereo unspecified)"
  Endpoint Label: "Activity"
  Observed Value: "3%"

###

Tested on: SK-HEP1
Assay: Antiproliferative activity against human SK-HEP1 cells assessed as inhibition of cell growth incubated for 5 days by CCK-8 assay
Assay type: functional, cell-based
Conditions: SK-HEP1, 120 h
pIC50: −log10 of the molar value.
Parameter pIC50: see the listing below.
Endpoint Label: pIC50

- Compound: "CNC(=O)N1CCc2c(c(N3CCCc4cc(-c5cnn(C)c5)c(C(F)F)cc43)nn2C2CCN(C(=O)CCOCCOCCOCCOCCNc3ccc4c(c3)C(=O)N(C3CCC(=O)NC3=O)C4=O)CC2)C1 (centres undefined)"
  Assayed Target: "SK-HEP1"
  Prefix Operator: "<"
  Observed Value: 4.70
- Compound: "Cc1noc(C)c1-c1ccc2c(c1)nc([C@@H]1CCCC(=O)N1c1ccc(F)c(F)c1)n2C1CCN(C2CN(c3ccc4c(c3)C(=O)N(C3CCC(=O)NC3=O)C4=O)C2)CC1 (some centres undefined)"
  Assayed Target: "SK-HEP1"
  Prefix Operator: "="
  Observed Value: 6.13
- Compound: "CO[C@H]1CC[C@H](n2c([C@@H]3CCCC(=O)N3c3ccc(F)c(F)c3)nc3cc(-c4c(C)noc4C)ccc32)CC1 [INOBRODIB]"
  Assayed Target: "SK-HEP1"
  Prefix Operator: "="
  Observed Value: 5.33
- Compound: "CC(=O)N1CCC(n2c([C@@H]3CCCC(=O)N3c3ccc(F)c(F)c3)nc3cc(-c4c(C)noc4C)ccc32)CC1"
  Assayed Target: "SK-HEP1"
  Prefix Operator: "="
  Observed Value: 5.36

###

Entries and their Activity values follow.
Target: Protein cereblon/Histone acetyltransferase p300 (Homo sapiens, UniProt Q09472+Q96SW2)
Assay: PROTAC activity at CRBN/p300 in human SK-HEP1 cells assessed as induction of p300 protein degradation at 1 uM incubated for 24 hrs relative to control
Assay type: cell-based
Endpoint Label: Activity (%)

- Compound: "Cc1noc(C)c1-c1ccc2c(c1)nc([C@@H]1CCCC(=O)N1c1ccc(F)c(F)c1)n2C1CCN(C(=O)CNc2cccc3c2C(=O)N(C2CCC(=O)NC2=O)C3=O)CC1 (stereo partly specified)"
  Observed Value: 18
- Compound: "Cc1noc(C)c1-c1ccc2c(c1)nc([C@@H]1CCCC(=O)N1c1ccc(F)c(F)c1)n2C1CCN(C2CCN(c3cccc4c3C(=O)N(C3CCC(=O)NC3=O)C4=O)CC2)CC1 (stereo partly specified)"
  Observed Value: 9
- Compound: "Cc1noc(C)c1-c1ccc2c(c1)nc([C@@H]1CCCC(=O)N1c1ccc(F)c(F)c1)n2C1CCN(C2CCN(c3ccc4c(c3)C(=O)N(C3CCC(=O)NC3=O)C4=O)CC2)CC1 (stereo partly specified)"
  Observed Value: 38
- Compound: "Cc1noc(C)c1-c1ccc2c(c1)nc([C@@H]1CCCC(=O)N1c1ccc(F)c(F)c1)n2C1CCN(c2ccc3c(c2)C(=O)N(C2CCC(=O)NC2=O)C3=O)CC1 (stereo partly specified)"
  Observed Value: 32
- Compound: "Cc1noc(C)c1-c1ccc2c(c1)nc([C@@H]1CCCC(=O)N1c1ccc(F)c(F)c1)n2C1CN(C2CN(c3ccc4c(c3)C(=O)N(C3CCC(=O)NC3=O)C4=O)C2)C1 (stereo partly specified)"
  Observed Value: 27
- Compound: "Cc1noc(C)c1-c1ccc2c(c1)nc([C@@H]1CCCC(=O)N1c1ccc(F)c(F)c1)n2C1CCN(C(=O)CCOCCOCCNc2ccc3c(c2)C(=O)N(C2CCC(=O)NC2=O)C3=O)CC1 (stereo partly specified)"
  Observed Value: 29
- Compound: "CNC(=O)N1CCc2c(c(N3CCCc4cc(-c5cnn(C)c5)c(C(F)F)cc43)nn2C2CCN(C(=O)CCOCCOCCOCCOCCNc3ccc4c(c3)C(=O)N(C3CCC(=O)NC3=O)C4=O)CC2)C1 (stereo unspecified)"
  Observed Value: 18
- Compound: "Cc1noc(C)c1-c1ccc2c(c1)nc([C@@H]1CCCC(=O)N1c1ccc(F)c(F)c1)n2C1CN(C2CCN(c3ccc4c(c3)C(=O)N(C3CCC(=O)NC3=O)C4=O)CC2)C1 (stereo partly specified)"
  Observed Value: 26
- Compound: "Cc1noc(C)c1-c1ccc2c(c1)nc([C@@H]1CCCC(=O)N1c1ccc(F)c(F)c1)n2C1CCN(C(=O)CCOCCNc2ccc3c(c2)C(=O)N(C2CCC(=O)NC2=O)C3=O)CC1 (stereo partly specified)"
  Observed Value: 18
- Compound: "Cc1noc(C)c1-c1ccc2c(c1)nc([C@@H]1CCCC(=O)N1c1ccc(F)c(F)c1)n2C1CCN(C(=O)CCOCCOCCOCCNc2ccc3c(c2)C(=O)N(C2CCC(=O)NC2=O)C3=O)CC1 (stereo partly specified)"
  Observed Value: 19
- Compound: "Cc1noc(C)c1-c1ccc2c(c1)nc([C@@H]1CCCC(=O)N1c1ccc(F)c(F)c1)n2C1CCN(C(=O)CCOCCOCCOCCNc2cccc3c2C(=O)N(C2CCC(=O)NC2=O)C3=O)CC1 (stereo partly specified)"
  Observed Value: 8
